These measurements were taken from patent US20250084079A1.

target: Avi-KRAS G12V (1-169) GppNHp/RAF1 RBD-3xFLAG (52-151) (Homo sapiens, UniProt P01116, G12V); construct: 50 nM Avi-KRAS G12V (1-169) GppNHp; experiment: RAS-effector PPI HTRF disruption assay, Raf1-GppNHp-KRAS G12V
Sequence (P01116 1-169 isoform P01116-2 G12V): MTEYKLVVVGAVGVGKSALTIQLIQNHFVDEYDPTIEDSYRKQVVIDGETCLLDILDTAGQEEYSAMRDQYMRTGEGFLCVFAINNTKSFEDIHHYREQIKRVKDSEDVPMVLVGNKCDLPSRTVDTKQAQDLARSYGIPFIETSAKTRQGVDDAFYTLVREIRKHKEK
Measured IC50, listed per entry for reference.

Example compounds with recorded IC50:
1) C[C@H]1NCC[C@H]1Oc1nc(OC[C@@]23CCCN2C[C@H](F)C3)nc2c(F)c(-c3ccc(F)c4scnc34)c(C(F)(F)F)cc12 ... > 10 µM
2) C[C@H]1NCC[C@H]1Oc1nc(OC[C@@]23CCCN2C[C@H](F)C3)nc2c(F)c(-c3ccc(F)c4sc(N)nc34)ccc12 ... > 10 µM
3) Nc1nc2c(-c3c(C(F)(F)F)cc4c(O[C@H]5CNC[C@@H]5F)nc(OC[C@@]56CCCN5C[C@H](F)C6)nc4c3F)ccc(F)c2s1 (atropisomer, axis not shown) [Compound 18] ... > 10 µM
4) C[C@@H]1CNCC1Oc1nc(OC[C@@]23CCCN2C[C@H](F)C3)nc2c(F)c(-c3ccc(F)c4sc(N)nc34)c(C(F)(F)F)cc12 (stereo partly shown) [Compound 15] ... 1 to 10 µM
5) C[C@@H]1C[C@@H](Oc2nc(OC[C@@]34CCCN3C[C@H](F)C4)nc3c(F)c(-c4ccc(F)c5sc(N)c(C#N)c45)ccc23)CN1 ... > 10 µM
6) N#Cc1c(N)sc2c(F)ccc(-c3c(C(F)(F)F)cc4c(O[C@H]5CNC[C@@H]5F)nc(OC[C@@]56CCCN5C[C@H](F)C6)nc4c3F)c12 ... 1 to 10 µM
7) Nc1nc2c(-c3c(C(F)(F)F)cc4c(O[C@H]5C[C@H]6CC[C@@H](C5)N6)nc(OCC56CCCN5CCC6)nc4c3F)ccc(F)c2s1 (atropisomer, axis not shown) ... > 10 µM
8) N#Cc1c(N)sc2c(F)ccc(-c3cc4nc(OC[C@@]56CCCN5C[C@H](F)C6)nc(O[C@H]5CNC[C@H]5F)c4cc3C(F)(F)F)c12 ... 1 to 10 µM

Enquiry: Find the recorded IC50 belonging to C[C@H]1CNCC1Oc1nc(OC[C@@]23CCCN2C[C@H](F)C3)nc2c(F)c(-c3ccc(F)c4sc(N)nc34)c(C(F)(F)F)cc12 (stereo partly shown) and report it.
Return: > 10 µM

Enquiry: Find the recorded IC50 belonging to `N#Cc1c(N)sc2c(F)ccc(-c3c(C(F)(F)F)cc4c(O[C@@H]5CCN[C@@H]5CF)nc(OC[C@@]56CCCN5C[C@H](F)C6)nc4c3F)c12` and report it.
Return: 1 to 10 µM

Enquiry: Find the recorded IC50 belonging to `CC1(C)NCC[C@H]1Oc1nc(OC[C@@]23CCCN2C[C@H](F)C3)nc2c(F)c(-c3ccc(F)c4sc(N)nc34)c(C(F)(F)F)cc12` and report it.
Return: 1 to 10 µM

Enquiry: Find the recorded IC50 belonging to C[C@H]1CNCC1Oc1nc(OC[C@@]23CCCN2C[C@H](F)C3)nc2c(F)c(-c3ccc(F)c4scnc34)c(C(F)(F)F)cc12 (stereo partly shown) and report it.
Return: > 10 µM

Enquiry: Find the recorded IC50 belonging to `C[C@@H]1NCC[C@@H]1Oc1nc(OC[C@@]23CCCN2C[C@H](F)C3)nc2c(F)c(-c3ccc(F)c4sc(N)c(C#N)c34)c(Cl)cc12` and report it.
Return: 0.1 to 1 µM

Enquiry: Find the recorded IC50 belonging to `N#Cc1c(N)sc2c(F)ccc(-c3c(C(F)(F)F)cc4c(OC5CCC6(CC5)CNC6)nc(OC[C@@]56CCCN5C[C@H](F)C6)nc4c3F)c12` and report it.
Return: 0.1 to 1 µM

Enquiry: Find the recorded IC50 belonging to C[C@H]1C[C@H](Oc2nc(OC[C@@]34CCCN3C[C@H](F)C4)nc3c(F)c(-c4ccc(F)c5sc(N)c(C#N)c45)c(Cl)cc23)CN1 [Compound 55] and report it.
Return: > 10 µM

Enquiry: Find the recorded IC50 belonging to `N#Cc1c(N)sc2c(F)ccc(-c3c(F)cc4c(O[C@@H]5CCNC5)nc(OC[C@@]56CCCN5C[C@H](F)C6)nc4c3F)c12` and report it.
Return: > 10 µM
